molecular target: Human mTOR (FLAG-TOR) (Homo sapiens, UniProt P42345); assay: mTOR kinase assay (DELFIA format, purified enzyme); format: biochemical; conditions: read-out: IC50 mTOR
Sequence (P42345 1360-2549 limits assumed): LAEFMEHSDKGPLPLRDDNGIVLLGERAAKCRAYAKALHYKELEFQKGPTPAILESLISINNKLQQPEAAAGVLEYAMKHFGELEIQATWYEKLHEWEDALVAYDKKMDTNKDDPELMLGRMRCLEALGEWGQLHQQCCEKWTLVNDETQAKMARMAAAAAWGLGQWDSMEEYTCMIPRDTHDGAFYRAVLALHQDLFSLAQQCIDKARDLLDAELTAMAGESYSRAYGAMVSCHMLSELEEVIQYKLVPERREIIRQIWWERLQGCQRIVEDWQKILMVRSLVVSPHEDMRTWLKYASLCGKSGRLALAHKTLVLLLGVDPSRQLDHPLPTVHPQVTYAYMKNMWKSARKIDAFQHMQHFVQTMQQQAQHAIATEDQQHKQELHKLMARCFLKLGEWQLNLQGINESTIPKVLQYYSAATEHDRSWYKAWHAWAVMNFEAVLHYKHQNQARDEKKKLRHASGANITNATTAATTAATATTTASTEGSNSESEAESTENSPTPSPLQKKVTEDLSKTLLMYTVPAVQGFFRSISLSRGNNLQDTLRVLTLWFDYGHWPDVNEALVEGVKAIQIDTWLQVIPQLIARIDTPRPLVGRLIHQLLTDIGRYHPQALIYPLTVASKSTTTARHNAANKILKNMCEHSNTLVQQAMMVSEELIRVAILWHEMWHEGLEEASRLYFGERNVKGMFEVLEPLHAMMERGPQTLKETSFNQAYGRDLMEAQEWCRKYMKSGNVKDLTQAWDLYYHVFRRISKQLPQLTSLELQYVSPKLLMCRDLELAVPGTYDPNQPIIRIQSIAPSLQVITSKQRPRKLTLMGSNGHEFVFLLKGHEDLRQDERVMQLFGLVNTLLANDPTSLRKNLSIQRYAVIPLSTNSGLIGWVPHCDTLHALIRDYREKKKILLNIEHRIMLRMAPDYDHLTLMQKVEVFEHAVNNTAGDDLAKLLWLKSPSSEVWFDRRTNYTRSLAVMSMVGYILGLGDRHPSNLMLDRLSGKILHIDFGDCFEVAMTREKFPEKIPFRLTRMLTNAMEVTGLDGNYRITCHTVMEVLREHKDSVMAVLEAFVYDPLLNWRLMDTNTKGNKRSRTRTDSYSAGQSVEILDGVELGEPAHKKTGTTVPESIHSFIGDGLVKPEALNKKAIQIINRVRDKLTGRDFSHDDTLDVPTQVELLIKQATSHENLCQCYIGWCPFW
Exam item: assign MET to entries whose IC50 is below 4 nM and NOT MET to entries at or above 4 nM. Note that a value of exactly 4 nM receives NOT MET.

Example results:
{"molecule": "NCCCNc1nc(-c2ccc(NC(=O)Nc3cccnc3)cc2)nc(N2CC3CCC(C2)O3)n1 [Example 156]", "categoryLabel": "NOT MET"}
{"molecule": "CN(C)CCNC(=O)c1ccc(NC(=O)Nc2ccc(-c3nc(N4CCOCC4)nc(N4C5CCCC4COC5)n3)cc2)cc1 [Example 796]", "categoryLabel": "MET"}
{"molecule": "CN1CCN(C(=O)c2ccc(NC(=O)Nc3ccc(-c4nc(C5CCOCC5)nc(N5CCOCC5)n4)cc3)cc2)CC1 [Example 511]", "categoryLabel": "MET"}
{"molecule": "CN(C)c1ccc(NC(=O)Nc2ccc(-c3nc(OC4CCOCC4)nc(N4CCOCC4)n3)cc2)cc1 [Example 66]", "categoryLabel": "MET"}
{"molecule": "CC(C)Nc1nc(-c2ccc(NC(=O)Nc3ccc(OCCN4CCCC4)cc3)cc2)nc(N2C3CCC2COC3)n1 [Example 384]", "categoryLabel": "NOT MET"}
{"molecule": "CN(C)C1CCN(C(=O)Nc2ccc(NC(=O)Nc3ccc(-c4nc(N5CCOCC5)nc(N5CCOCC5)n4)cc3)cc2)CC1 [Example 499]", "categoryLabel": "MET"}
{"molecule": "COC(=O)c1ccc(NC(=O)Nc2ccc(-c3nc(N4CCOCC4)nc(N4C5CCC4COC5)n3)cc2)cc1 [Example 693]", "categoryLabel": "MET"}
{"molecule": "O=C(Nc1ccc(-c2nc(N3CCOCC3)nc(N3CCOCC3)n2)cc1)Nc1ccc(C(F)(F)F)cn1 [Example 55]", "categoryLabel": "NOT MET"}

[in] Please check: IC50 for CC(C)(C)OC(=O)N1C[C@H]2C[C@@H]1CN2c1nc(-c2ccc(NC(=O)Nc3ccncc3)cc2)nc(N2CCOCC2)n1 [Example 256] , strictly under 4 nM or not?
[out] NOT MET

[in] Does the reported IC50 of CCN1CCN(C(=O)c2ccc(NC(=O)Nc3ccc(-c4nc(-c5cccs5)nc(N5CCOCC5)n4)cc3)cc2)CC1 [Example 575] stay below 4 nM?
[out] NOT MET

[in] Is IC50 of C[C@@H]1COCCN1c1nc(-c2ccc(NC(=O)Nc3ccncc3)cc2)nc(N2C3CCC2COC3)n1 [Example 416] strictly below 4 nM?
[out] MET

[in] IC50 under 4 nM? Item: CN1CCN(Nc2nc(-c3ccc(NC(=O)Nc4ccccc4)cc3)nc(N3CCOCC3)n2)CC1 [Example 686]
[out] NOT MET

[in] In plain terms, does CC(C)Cc1nc(-c2ccc(NC(=O)Nc3ccc(N4CCN(C)CC4)cc3)cc2)nc(N2CCOCC2)n1 [Example 297] come in under 4 nM for IC50?
[out] NOT MET

[in] is_below(IC50, 4 nM) for O=C(NCCO)Nc1ccc(-c2nc(N3CCOCC3)nc(N3C4CCC3COC4)n2)cc1 [Example 45] ?
[out] MET

[in] Hello, is IC50 of the following molecule strictly smaller than 4 nM? O=C(Nc1ccc(-c2nc(N3CCOCC3)nc(N3CCC4(CC3)OCCO4)n2)cc1)Nc1cccnc1 [Example 131]
[out] NOT MET

---

biological target: PI3K-α (Homo sapiens); test: PI3K-alpha fluorescence polarization assay; conditions: read-out: IC50 PI3Kα
Listed here are compounds together with their documented log10 IC50.
The figures below represent log10 of IC50, where IC50 is stated in nM.

Below are worked cases with known answers.
{"lineNotation": "O=C(Nc1ccncc1)Nc1ccc(-c2nc(N3CCOCC3)nc(N3C4CCCC3COC4)n2)cc1", "measuredNumber": 1.10}
{"lineNotation": "CN1CCN(c2ccc(NC(=O)Nc3ccc(-c4nc(N5CCOCC5)nc(N5C6CCC5COC6)n4)cc3)cc2)CC1", "measuredNumber": 1.45}
{"lineNotation": "CNCCNC(=O)c1ccc(NC(=O)Nc2ccc(-c3nc(C4CCOCC4)nc(N4C5CCC4COC5)n3)cc2)cc1", "measuredNumber": 1.52}

[in] GET /values?readout=log10 IC50&item= CN1CCN(C(=O)c2ccc(NC(=O)Nc3ccc(-c4nc(N5CCOCC5)[nH]c(=O)n4)cc3)cc2)CC1
[out] 1.18

[in] Param item = CCCCN1CCN(C(=O)c2ccc(NC(=O)Nc3ccc(-c4nc(N5CCOC[C@H]5C)nc(N5CCOC[C@@H]5C)n4)cc3)cc2)CC1 ; retrieve measured log10 IC50.
[out] 1.27

[in] Entry Cc1ccc(-c2nc(-c3ccc(NC(=O)Nc4ccc(C(=O)N5CCCCC5)cc4)cc3)nc(N3CCOCC3)n2)cc1 has what log10 IC50?
[out] 1.94

[in] log10 IC50 for O=C(Nc1ccc(-c2nc(N3CCOCC3)nc(N3CCOCC3)n2)cc1)Nc1ccc(C(F)(F)F)cn1 ?
[out] 2.31

---

biological target: Human mTOR (FLAG-TOR) (Homo sapiens, UniProt P42345); assay: mTOR kinase assay (DELFIA format, purified enzyme); format: biochemical; details: read-out: IC50 mTOR
Consider the cut-off 3 nM. If the recorded IC50 is strictly smaller, the label is MET; if not, the label is NOT MET.

Please review the following examples before continuing.
{"lineNotation": "O=C(Nc1ccc(-c2nc(N3CCOCC3)nc(N3CC4CCC(C3)O4)n2)cc1)Nc1cccnc1", "categoryLabel": "MET"}
{"lineNotation": "O=C(Nc1ccc(C(=O)O)cc1)Nc1ccc(-c2nc(NS(=O)(=O)c3ccccc3)nc(N3CCOCC3)n2)cc1", "categoryLabel": "NOT MET"}
{"lineNotation": "C[C@@H]1COCCN1c1nc(-c2ccc(NC(=O)Nc3ccc(CN4CCCC4)cc3)cc2)nc(N2CCOC[C@H]2C)n1", "categoryLabel": "NOT MET"}
{"lineNotation": "O=C(Nc1ccc(-c2nc(N3CCOCC3)nc(N3CCOCC3)n2)cc1)C(F)F", "categoryLabel": "NOT MET"}
{"lineNotation": "O=C(Nc1ccc(-c2nc(NC3CNC3)nc(N3CC4CCC(C3)O4)n2)cc1)Nc1cccnc1", "categoryLabel": "NOT MET"}

[in] Is it true that IC50 reported for O=C(Nc1ccccc1)Nc1ccc(-c2nc(N3CCOCC3)nc(N3CC4CCC(C3)O4)n2)cc1 is less than 3 nM?
[out] MET

[in] Consider the compound CN(C)CCOc1ccc(NC(=O)Nc2ccc(-c3nc(NS(=O)(=O)c4ccccc4)nc(N4CCOCC4)n3)cc2)cc1 . Is its IC50 strictly less than 3 nM?
[out] NOT MET

---

target: PI3K-α (Homo sapiens, UniProt P42336); test: PI3K-alpha fluorescence polarization assay; conditions: read-out: IC50 PI3Kα; listed as 720
Sequence (P42336 whole entry, species assumed): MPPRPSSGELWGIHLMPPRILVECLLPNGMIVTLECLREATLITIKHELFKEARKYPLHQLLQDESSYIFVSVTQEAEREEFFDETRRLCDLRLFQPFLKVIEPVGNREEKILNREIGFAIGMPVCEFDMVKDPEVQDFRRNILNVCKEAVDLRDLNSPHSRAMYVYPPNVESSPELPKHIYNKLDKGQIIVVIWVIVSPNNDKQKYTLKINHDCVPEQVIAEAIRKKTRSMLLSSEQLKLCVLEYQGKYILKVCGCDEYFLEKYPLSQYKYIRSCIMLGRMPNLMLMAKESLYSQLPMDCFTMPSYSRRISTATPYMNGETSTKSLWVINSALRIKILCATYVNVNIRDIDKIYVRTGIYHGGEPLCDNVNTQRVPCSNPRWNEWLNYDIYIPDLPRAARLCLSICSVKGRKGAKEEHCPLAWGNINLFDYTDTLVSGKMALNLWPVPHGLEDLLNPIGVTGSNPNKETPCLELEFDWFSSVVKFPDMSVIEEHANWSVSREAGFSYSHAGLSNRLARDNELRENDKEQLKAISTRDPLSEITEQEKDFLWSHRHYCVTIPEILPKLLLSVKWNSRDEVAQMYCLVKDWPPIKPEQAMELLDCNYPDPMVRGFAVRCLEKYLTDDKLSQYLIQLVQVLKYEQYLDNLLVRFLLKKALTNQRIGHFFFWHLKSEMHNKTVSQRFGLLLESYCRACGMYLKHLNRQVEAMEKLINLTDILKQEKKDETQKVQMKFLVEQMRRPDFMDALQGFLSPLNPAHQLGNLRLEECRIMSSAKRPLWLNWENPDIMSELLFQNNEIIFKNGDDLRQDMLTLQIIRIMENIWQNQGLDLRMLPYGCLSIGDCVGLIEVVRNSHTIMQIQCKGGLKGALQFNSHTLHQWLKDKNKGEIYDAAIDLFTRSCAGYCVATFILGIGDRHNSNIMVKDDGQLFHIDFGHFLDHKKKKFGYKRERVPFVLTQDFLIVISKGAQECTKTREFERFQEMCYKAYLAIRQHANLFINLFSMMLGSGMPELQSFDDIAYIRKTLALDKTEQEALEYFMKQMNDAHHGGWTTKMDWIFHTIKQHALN
Sequence (P27986 whole entry partner, species assumed): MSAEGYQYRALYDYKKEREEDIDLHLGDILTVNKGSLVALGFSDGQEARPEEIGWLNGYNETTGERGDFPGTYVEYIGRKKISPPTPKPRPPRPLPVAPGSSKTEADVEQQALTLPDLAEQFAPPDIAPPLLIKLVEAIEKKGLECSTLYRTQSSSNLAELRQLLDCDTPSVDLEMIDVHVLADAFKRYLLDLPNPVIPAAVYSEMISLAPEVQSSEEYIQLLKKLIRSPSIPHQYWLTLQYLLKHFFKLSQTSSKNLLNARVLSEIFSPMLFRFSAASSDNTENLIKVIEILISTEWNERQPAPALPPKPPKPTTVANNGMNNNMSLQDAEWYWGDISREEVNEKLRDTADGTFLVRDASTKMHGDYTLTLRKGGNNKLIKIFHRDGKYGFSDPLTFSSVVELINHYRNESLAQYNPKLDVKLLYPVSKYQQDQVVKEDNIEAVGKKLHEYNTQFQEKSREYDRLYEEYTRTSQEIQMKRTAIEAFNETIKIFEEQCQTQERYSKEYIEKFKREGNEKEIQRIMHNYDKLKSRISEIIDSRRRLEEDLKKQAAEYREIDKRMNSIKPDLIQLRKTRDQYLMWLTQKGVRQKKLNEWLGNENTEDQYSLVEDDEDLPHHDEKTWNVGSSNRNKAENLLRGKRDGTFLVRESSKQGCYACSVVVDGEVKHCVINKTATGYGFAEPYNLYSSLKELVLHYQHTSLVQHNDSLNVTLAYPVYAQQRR
experimentalEndpoint: IC50 (pM)
Give just the numeric value; pM need not be written.

[in] Which IC50 is listed for COc1nc(-c2ccc(NC(=O)Nc3ccc(C(=O)N(C)CCN(C)C)cc3)cc2)nc(N2CCOCC2)n1 [Example 243] ?
[out] 400

---

system: human breast MDA-MB-361 tumor cell line; test: In vitro cell culture growth assay (MTS), MDA-MB-361; format: cell-based; settings: Homo sapiens, MDA-MB-361, 72 h, MTS cell growth assay, three days after drug treatment, MDA-MB-361 cells; read-out: IC50 MDA-MB-361
Item-by-item account of pIC50
Keep it numeric: pIC50 is minus log10 of the concentration in mol/L.

For orientation, consider the following solved cases.
{"lineNotation": "CN(C)C1CCN(C(=O)c2ccc(NC(=O)Nc3ccc(-c4nc(C5=CCOCC5)nc(N5CCOCC5)n4)cc3)cc2)CC1", "measuredNumber": 7.91}
{"lineNotation": "O=C(Nc1ccc(C(=O)O)cc1)Nc1ccc(-c2nc(-c3ccccc3)nc(N3CCOCC3)n2)cc1", "measuredNumber": 6.02}

[in] Checklist item: pIC50 tested on human breast MDA-MB-361 tumor cell line, entry CN1CCN(C(=O)c2ccc(NC(=O)Nc3ccc(-c4nc(-c5cccs5)nc(N5CCOCC5)n4)cc3)cc2)CC1 , value?
[out] 8.10

[in] Test system human breast MDA-MB-361 tumor cell line; read-out pIC50; what value for C[C@H]1COCCN1c1nc(-c2ccc(NC(=O)Nc3ccc(C(=O)N4CCN(C)CC4)cc3)cc2)nc(N2CCOCC2)n1 ?
[out] 8.40

[in] Provide the documented pIC50 with human breast MDA-MB-361 tumor cell line as the system for O=C(Nc1ccc(C(=O)N2CCNCC2)cc1)Nc1ccc(-c2nc(N3CCOCC3)nc(N3C4COCC3COC4)n2)cc1
[out] 8.30

Data provenance is patent US20090304692A1.
